B1: LINE1-full (parent)
chain: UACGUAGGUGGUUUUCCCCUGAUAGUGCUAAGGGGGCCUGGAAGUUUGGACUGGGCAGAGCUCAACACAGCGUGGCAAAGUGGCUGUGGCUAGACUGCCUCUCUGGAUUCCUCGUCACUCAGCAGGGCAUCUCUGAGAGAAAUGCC

Variants of: B1
method.notes: self-cleavage, relative activity (ratio to wild type); higher = more cleavage; in vitro, sequencing; the parent is a self-cleaving ribozyme
I'd appreciate it if you could supply self-cleavage values for the items below.
One number for each entry.

Example cases with answers are listed next.
UACGUAGGUGGUUUUCCCCUGAUAGUGCUAAGGGGGCCUGGAAGUUUGGACUGGGCAGAGCUCAACCCGGCGUGGCAAAGUGGCUGUGGCUAGACUGCCUCUCUGGAUUCCUCGUCACUCAGCAGGGCAUCUCUGAGAGAAAUGCC [A67C A69G] | 0
UACGUAGGUGGUUUUCCCCUGAUAGUGCCAAGGGGGCCUGGAGGUUUGGACUGGGCAGAGCUCAACACAGCGUGGCAAAGUGGCUGUGGCUAGACUGCCUCUCUGGAUUCCUCGUCACUCAGCAGGGCAUCUCUGAGAGAAAUGCC [U29C A43G] | 1.29
UACGUAGGUGGUUUUCCCCUGAUAGUGCUAAGGGGGCCUGGAAGUUUGGGCUGGGCAGAGCUCAACACAGCGUGGCACAGUGGCUGUGGCUAGACUGCCUCUCUGGAUUCCUCGUCACUCAGCAGGGCAUCUCUGAGAGAAAUGCC [A50G A78C] | 0
AACGUAGGUGAUUUUCCCCUGAUAGUGCUAAGGGGGCCUGGAAGUUUGGACUGGGCAGAGCUCAACACAGCGUGGCAAAGUGGCUGUGGCUAGACUGCCUCUCUGGAUUCCUCGUCACUCAGCAGGGCAUCUCUGAGAGAAAUGCC [U1A G11A] | 1.76
UACGUAGGUGGUUUUCCCCUGAUAGUGCUAAGGGGGCCUGGAAGUUUGGACUGGGCAGAGCUCAACACAGCGUGGCAAAGUGGCUGUGGCUAGACUGCCUCUCUGGAUUCCUCGUCACUCAGCAGGGCAUCACUGAGAGGAAUGCC [U132A A140G] | 1.41

Quick batch: self-cleavage for everything below.
1. UACGUAGGUGGUUUUCCCCUGAUAGUGCUAAGGGGGCCUGGAAGUUUGGACUGGGCAGAGCUCAACACAGCGUGGCAAAGUGGCUGUGGCUAGACUGCCUCUCUGGAUUCCUCGCCACUCAGCAGGGCAUCUCUGAGAGAAACGCC [U115C U143C]
2. UACGUAGGUGGUUUUCCCCUGAUAGUGCUAAGGGGGCCUGGAAGUUUGGACUGGGCAGAGCUCAACACAGCGUGGCAAAGUGGCUGUGGCUAGACUGCCUCUCUGGAUUCCUCGUCGCUCAGCAGGGCAUCUCUGAGAGAUAUGCC [A117G A141U]
3. UACGUAGGUGGUUUUCCCCUGAUAGUGCUAAUGGGGCCUGGAAGUUUGGACUGGGCAGAGCCCAACACAGCGUGGCAAAGUGGCUGUGGCUAGACUGCCUCUCUGGAUUCCUCGUCACUCAGCAGGGCAUCUCUGAGAGAAAUGCC [G32U U62C]
4. UACGUAGGUGGUUUUCCCCUGAUAGUGCUAAGGGGGCCUGGAAGCUUGGACUGGGCAGAGCUCAACACAGCGUGGCAAAGUGGCUGUGGCUAGACUGCCUCUCUGGAUUCCUCGUCACUCAGCAGGGCAUCUCGGAGAGAAAUGCC [U45C U134G]
5. UACGUAGGUGGUUUUCCCCUGAUAGUGUUAAGGGGGCCUGGAAGUCUGGACUGGGCAGAGCUCAACACAGCGUGGCAAAGUGGCUGUGGCUAGACUGCCUCUCUGGAUUCCUCGUCACUCAGCAGGGCAUCUCUGAGAGAAAUGCC [C28U U46C]
6. UACGUAGGUGGUUUUCCCCUGAUAGUGCUAAGGUGGCCUGGAAGUUUGGACUGGGCAGAGCUCGACACAGCGUGGCAAAGUGGCUGUGGCUAGACUGCCUCUCUGGAUUCCUCGUCACUCAGCAGGGCAUCUCUGAGAGAAAUGCC [G34U A64G]

Key:
1.61
1.69
0.06
1.22
1.21
0.36

Count: 6. Required value per item: self-cleavage.
1. UACGUAGGUGGUUUUCCCCUGAUAGUGCUAAGGGGGCCUGGAAGUUUGGACUGGGCAGAGCUCAACACAGCGUGGCUAAGUGGCUGCGGCUAGACUGCCUCUCUGGAUUCCUCGUCACUCAGCAGGGCAUCUCUGAGAGAAAUGCC [A77U U87C]
2. UACGUAGGUGGUUUUCCCCUGAUAGUGCUAAGGGGGCCUGGAAGUUUGGACUGGGCAGAGCUCAACACAGCGUGGCAAAGUGGCUGUGGCUAGACCGCCUCUCUGGAUUCCUCGUCACUCAGUAGGGCAUCUCUGAGAGAAAUGCC [U96C C123U]
3. UACGCAGGUGGUUUUCCCCUGAUAGUGCUAAGGGGGCCUGGUAGUUUGGACUGGGCAGAGCUCAACACAGCGUGGCAAAGUGGCUGUGGCUAGACUGCCUCUCUGGAUUCCUCGUCACUCAGCAGGGCAUCUCUGAGAGAAAUGCC [U5C A42U]
4. UACGUAGGUGGUUUUCCCCUGAUAGUGCUAAGGCGGCCUGGAAGUUCGGACUGGGCAGAGCUCAACACAGCGUGGCAAAGUGGCUGUGGCUAGACUGCCUCUCUGGAUUCCUCGUCACUCAGCAGGGCAUCUCUGAGAGAAAUGCC [G34C U47C]
5. UACGUAGGUGGUUUUCCCAUGAUAGUGCUAAGGGGGCCUGGAAGUUUGGACUGGGCAGAGCUCAACACAGCGUGGCAAAGUGGCGGUGGCUAGACUGCCUCUCUGGAUUCCUCGUCACUCAGCAGGGCAUCUCUGAGAGAAAUGCC [C19A U85G]
6. UACGUAGGUAGUUUUCCCCUGAUAGUGCUAAGGGGGCCUGGAAGUUUGGACUGGGCAGAGCUCAACACAGCGUGGCAAAGUGGCUGUGGCUAGACUGCCUCUCUGGAUCCCUCGUCACUCAGCAGGGCAUCUCUGAGAGAAAUGCC [G10A U109C]

Key:
[0.09, 0.04, 1.04, 1.79, 0.13, 1.08]

Quick batch: self-cleavage for everything below.
1. UACGUAGGUGGUUUUCCCCUGAUAGUGCUAAGGAGGCCUGGAAGUUUGGACUGGGCAGAGCUCAACACAGCGUGGCAAGGUGGCUGUGGCUAGACUGCCUCUCUGGAUUCCUCGUCACUCAGCAGGGCAUCUCUGAGAGAAAUGCC [G34A A79G]
2. UACGUAGGUGGUUUUCCCCUGAUAGUGCUAAGGGGGCCCGGAAGUUUGGACUGGGCAGAGCUCAACACAGCGUGGCAAAGUGGCUGUGGCUAGACUGCCUCUCUGGAUUCCUCGUCACUCAGCAGGGCAUCUCUGAGAGAAAUGCC [U39C]
3. UACGUAGGUGGUUUUCCCCUGAUAGUGCUAAGGGGGCCUGGAGGUUUGGACUGGGCAGAGCUCAACACAGCGUGGCAAAGUGGCUGUGGCUAGACUGCCUCUCUGGAUUCCUCGUCACACAGCAGGGCAUCUCUGAGAGAAAUGCC [A43G U119A]

Key:
1.11
1.14
1.15

Please state self-cleavage for every variant in the list that follows.
1. UACGUAGGUGGCUUUCCCCUGAUAGUGCUAAGGGGGCCUGGAAGUUUGGACUGGGCAGAGCUCAACACAGCGUGGCAAAGUGGCUGUGGCUAGACUGCCUCUCUGGAUUCCUCGUCACUCAGCUGGGCAUCUCUGAGAGAAAUGCC [U12C A124U]
2. UACGUAGGUGGUUUUCCCCUGAUAGUGCUAAGGGGGCCUGGAAGUUUGGACUGGGCAGAGCUCAACACAGCGUGGCGAAGUGGCUGUGGCUAGACUGCCUCUCUGGAUUCCUCGUCACUCAGCAGGGCACCUCUGAGAGAAAUGCC [A77G U130C]
3. UACGUAGGUGGUUUUCCCGUGAUAGUGCUAAGGGGGCCUGGAAGUUUGGACAGGGCAGAGCUCAACACAGCGUGGCAAAGUGGCUGUGGCUAGACUGCCUCUCUGGAUUCCUCGUCACUCAGCAGGGCAUCUCUGAGAGAAAUGCC [C19G U52A]

Key:
[1.29, 2.56, 1.16]

Could you tell me self-cleavage for each of these variants? They are listed below.
1. UACGUAGGUGGUUUUCCCCUGAUAGUGCUAAGGGGGCCUGGAAGCUUGGACUGGGCAGAGCUCAACACAGCGUGGCAAAGUGGCUGUGGCUAGACUGCCUCUCAGGAUUCCUCGUCACUCAGCAGGGCAUCUCUGAGAGAAAUGCC [U45C U104A]
2. UACGUAGGUGGUUUUCCCCUGAUAGUGCUAAGGGGGCCUGGAAGUUUGGACUGGGCAGAGCUCAACACAGCGUGGCAAAGUGGCUGUGGCUAGACUGCCUCUCUGGAUUCCCCGUCACUCAGCAGGGCAUCUCUGAUAGAAAUGCC [U112C G137U]
3. UACGUAGGUGGUUUUCCCCUGAUAGUGCUAAGGGGGCCUGGAAGUUUGGUCCGGGCAGAGCUCAACACAGCGUGGCAAAGUGGCUGUGGCUAGACUGCCUCUCUGGAUUCCUCGUCACUCAGCAGGGCAUCUCUGAGAGAAAUGCC [A50U U52C]
4. UACGUAGGUGGUUUUCCCCUGAUAGUGCUAAGGGGGCCUGGAAGUUUGGACUGGGCAGAGCUCAACACAGCGUGGCAAAGUGGCUGUAGCUAGACUGCCUCUCUGGAUUCCUCGUCACUCAGCAGGGCAUCUCUGGGAGAAAUGCC [G88A A136G]
5. UACGUAGGUGGUUUUCCCCUGAUAGUGCUAAGGGGGCCUGGAAGUUUGGACUGGGCAGAGCUCAACACAGCGUGGCAGAGUGGCUGUGGCUAGACUGCCUCUCUGGAUUCCUCGUCACUCAGCAGGGCUUCUCUGAGAGAAAUGCC [A78G A129U]
6. UACGUAGGUGGUUUUCCCCUGAUAGUGCUAUGGGGGCCUGGAAGUUUGGAGUGGGCAGAGCUCAACACAGCGUGGCAAAGUGGCUGUGGCUAGACUGCCUCUCUGGAUUCCUCGUCACUCAGCAGGGCAUCUCUGAGAGAAAUGCC [A31U C51G]

Key:
[1.43, 0.88, 0.89, 0.07, 1.17, 1.4]

State recorded self-cleavage for all listed variants.
1. UACGUAGGUGGUUUUCCCCUGAUAGUGCUAAGGGGGCCUGGAAGUUUGGACUGGGCAGAGCUCAACACAGCGUGGCAAAGUGGCUGUGGCUAGACUACCUCUCUGGAUUCCUCAUCACUCAGCAGGGCAUCUCUGAGAGAAAUGCC [G97A G114A]
2. UACGUAGGUGGUUUCCCCCUGAUAGUGCUAAGGGGGCCUGGAAGUUUGGACUGGGCAGAGCUCAACACAGCGUGGCAAAGUGGCUGUGGCUAGGCUGCCUCUCUGGAUUCCUCGUCACUCAGCAGGGCAUCUCUGAGAGAAAUGCC [U15C A94G]
3. UACGUAGGUGGGUUUCCCCUGAUAGUGCUAAGGGGGCCUGGAAGUUUGGACUGGGCAGAGCUCAACACAGCGUGGCAAAGUGGCUGCGGCUAGACUGCCUCUCUGGAUUCCUCGUCACUCAGCAGGGCAUCUCUGAGAGAAAUGCC [U12G U87C]
4. UACAUAGGUGGUUUUCCCCUGAUAGUGCUAAGGGGGCCUAGAAGUUUGGACUGGGCAGAGCUCAACACAGCGUGGCAAAGUGGCUGUGGCUAGACUGCCUCUCUGGAUUCCUCGUCACUCAGCAGGGCAUCUCUGAGAGAAAUGCC [G4A G40A]
5. UACGUAGGUGGUUUUCCCCUGAUAGUGCUAAGGGGGCCUGGAAGUUUGGACUGGGCAGAGCUCAACACAGCGUGGCAAAGUGGCUGUGGCUAGACUGCCCCUCUGGAUUCCUCGUCACUCAGCAGGGCAUGUCUGAGAGAAAUGCC [U100C C131G]

Key:
1: 0.15; 2: 0.34; 3: 0.16; 4: 1.24; 5: 2.35

Exercise: Name the recorded self-cleavage of the variant listed here: UACGUAGGUGGUUUUCCCCUGAUAGUGCUAAGGGGGCCUGGAAGUUUGGACUGGGCAGAGCUCAACACAGCGUGGCAAAGUGGCUGUGGCUAGACUGCCUCUCUGGAUUCCACAUCACUCAGCAGGGCAUCUCUGAGAGAAAUGCC [U112A G114A]
Key: 0.38
